tested on: KMRC-1 (Kidney Carcinoma); experiment: Bliss excess, mean over the matrix (fraction); higher = more synergy;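 further: after 72 h of two-drug dosing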
measured quantity: Bliss excess
Respond with the number and no other words.

Find the measured Bliss excess: item COc1cccc(OCCCN)c1-c1cc(Nc2cnc(C#N)cn2)n[nH]1 [Prexasertib] + C=CCn1c(=O)c2cnc(Nc3ccc(N4CCN(C)CC4)cc3)nc2n1-c1cccc(C(C)(C)O)n1 [AZD1775] (first compound max 1 µM, partner max 1 µM) , target or system KMRC-1 (Kidney Carcinoma).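 Further: after 72 h of two-drug dosing.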
0.0366

Same question for Cc1c2c(nn1C)CSCc1cc(n(C)n1)CSc1cc(c3ccccc3c1)OCCCc1c(C(=O)O)n(C)c3c-2c(Cl)ccc13 [AZD5991] + Nc1ccn([C@@H]2O[C@H](CO)[C@@H](O)C2(F)F)c(=O)n1 [Gemcitabine] (first compound max 1 µM, 7x7, partner max 0.3 µM) please.
-0.0638

One more molecule: CCN(CCO)CCCOc1ccc2c(Nc3cc(CC(=O)Nc4cccc(F)c4)[nH]n3)ncnc2c1 [AZD2811] + C[C@@H]1COCCN1C2=NC(=NC(=C2)C3(CC3)[S@](=N)(=O)C)C4=C5C=CNC5=NC=C4 [AZD6738] (first compound max 1 µM, 7x7, partner max 10 µM)
-0.042

Also check NC1(C(=O)N[C@@H](CCO)c2ccc(Cl)cc2)CCN(c2ncnc3[nH]ccc23)CC1 [Capivasertib] + Cn1cnc2c(F)c(Nc3ccc(Br)cc3Cl)c(C(=O)NOCCO)cc21 [Selumetinib] (first compound max 10 µM, 7x7, partner max 10 µM)
0.0071

====

system: DU-145 (Prostate Carcinoma); experiment: combination Emax (second highest fraction inhibited in the dose matrix, 72 h); higher = more inhibition; extreme values may be limits of the assay
Could you please classify the records by combination Emax using these ranges: lower bin: < 0.2; middle bin: ≥ 0.2 and < 0.5; upper bin: ≥ 0.5

Which combination Emax category applies to COc1cccc(OCCCN)c1-c1cc(Nc2cnc(C#N)cn2)n[nH]1 [Prexasertib] + C=CCn1c(=O)c2cnc(Nc3ccc(N4CCN(C)CC4)cc3)nc2n1-c1cccc(C(C)(C)O)n1 [AZD1775] (first compound max 1 µM, partner max 1 µM) here?
upper bin

What do you have for COc1nnc2ccc(N3CCC(c4ccc(OCCN5CCN(C)C(=O)[C@H]5C)cc4)CC3)nn12 [AZD5153] + CC1(C)CCC(CN2CCN(c3ccc(C(=O)NS(=O)(=O)c4ccc(NCC5CCOCC5)c([N+](=O)[O-])c4)c(Oc4cnc5[nH]ccc5c4)c3)CC2)=C(c2ccc(Cl)cc2)C1 [Venetoclax] (first compound max 1 µM, 7x7, partner max 1 µM) ?
middle bin

Now consider COc1cccc(OCCCN)c1-c1cc(Nc2cnc(C#N)cn2)n[nH]1 [Prexasertib] + C[C@@H]1COCCN1C2=NC(=NC(=C2)C3(CC3)[S@](=N)(=O)C)C4=C5C=CNC5=NC=C4 [AZD6738] (first compound max 1 µM, 7x7, partner max 10 µM) .
upper bin

Follow-up entry: CN(C)CCCOc1ccc(-c2ccc3ncc4c(c3c2)n(C2CCOCC2)c(=O)n4C)cn1 [AZD0156] + O=C(c1cc(Cc2n[nH]c(=O)c3ccccc23)ccc1F)N1CCN(C(=O)C2CC2)CC1 [Olaparib] (first compound max 3 µM, partner max 3 µM)
lower bin

Same question for CS(=O)(=O)CCNCc1ccc(-c2ccc3ncnc(Nc4ccc(OCc5cccc(F)c5)c(Cl)c4)c3c2)o1 [Lapatinib] + C[C@@H](Oc1cc(-c2cnn(C3CCNCC3)c2)cnc1N)c1c(Cl)ccc(F)c1Cl [Crizotinib] (first compound max 10 µM, 7x7, partner max 10 µM) please.
middle bin

Same lookup for CC1(C)CCC(CN2CCN(c3ccc(C(=O)NS(=O)(=O)c4ccc(NCC5CCOCC5)c([N+](=O)[O-])c4)c(Oc4cnc5[nH]ccc5c4)c3)CC2)=C(c2ccc(Cl)cc2)C1 [Venetoclax] + CCN(CCO)CCCOc1ccc2c(Nc3cc(CC(=O)Nc4cccc(F)c4)[nH]n3)ncnc2c1 [AZD2811] (first compound max 1 µM, 7x7, partner max 1 µM) , please.
lower bin

Okay, and Cc1cc2ncnn2cc1Nc1ncc2c(n1)n(C1CCOCC1)c(=O)n2C [AZD7648] + C[C@@H]1COCCN1C2=NC(=NC(=C2)C3(CC3)[S@](=N)(=O)C)C4=C5C=CNC5=NC=C4 [AZD6738] (first compound max 10 µM, 7x7, partner max 10 µM) ?
middle bin

Repeat for the following compound: CN(CCO)CC[C@H](CSc1ccccc1)Nc1ccc(S(=O)(=O)NC(=O)c2ccc(N3CCC([C@@H](O)c4ccccc4-c4ccc(Cl)cc4)CC3)cc2)cc1S(=O)(=O)C(F)(F)F [AZD4320] + Nc1ccn([C@@H]2O[C@H](CO)[C@@H](O)C2(F)F)c(=O)n1 [Gemcitabine] (first compound max 1 µM, 7x7, partner max 0.3 µM)
middle bin

Can you handle Cc1cc2ncnn2cc1Nc1ncc2c(n1)n(C1CCOCC1)c(=O)n2C [AZD7648] + O=C(c1cc(Cc2n[nH]c(=O)c3ccccc23)ccc1F)N1CCN(C(=O)C2CC2)CC1 [Olaparib] (first compound max 10 µM, 7x7, partner max 10 µM) next?
lower bin

And then CCN(CCO)CCCOc1ccc2c(Nc3cc(CC(=O)Nc4cccc(F)c4)[nH]n3)ncnc2c1 [AZD2811] + C=CCn1c(=O)c2cnc(Nc3ccc(N4CCN(C)CC4)cc3)nc2n1-c1cccc(C(C)(C)O)n1 [AZD1775] (first compound max 1 µM, partner max 1 µM) , what is it?
middle bin

Similarly, COc1cccc(OCCCN)c1-c1cc(Nc2cnc(C#N)cn2)n[nH]1 [Prexasertib] + CN(C)CCCOc1ccc(-c2ccc3ncc4c(c3c2)n(C2CCOCC2)c(=O)n4C)cn1 [AZD0156] (first compound max 1 µM, 7x7, partner max 1 µM) ?
upper bin

And C=CCn1c(=O)c2cnc(Nc3ccc(N4CCN(C)CC4)cc3)nc2n1-c1cccc(C(C)(C)O)n1 [AZD1775] + C1CN(CCC1(C(=O)N[C@@H](CCO)C2=CC=C(C=C2)Cl)N)C3=NC=NC4=C3C=CN4 [Capivasertib] (first compound max 3 µM, partner max 3 µM) ?
middle bin

Then CC1(C)CCC(CN2CCN(c3ccc(C(=O)NS(=O)(=O)c4ccc(NCC5CCOCC5)c([N+](=O)[O-])c4)c(Oc4cnc5[nH]ccc5c4)c3)CC2)=C(c2ccc(Cl)cc2)C1 [Venetoclax] + Cc1cc2ncnn2cc1Nc1ncc2c(n1)n(C1CCOCC1)c(=O)n2C [AZD7648] (first compound max 1 µM, 7x7, partner max 10 µM) ?
lower bin

Where these numbers come from: the supplement of paper PMC11061612
